test system: Musca domestica; assay: Housefly contact test, mortality after 48 hours; type: in vivo, Housefly Musca domestica; details: μg of the test compound per 25 female flies
metric: LC50 HF

>  <given_smiles>
CC(C)C(=Nc1ccc2nc(C(C)C)sc2c1)OCc1cccc(Oc2ccccc2)c1

>  <study_system>
Musca domestica

>  <LC50 HF>
> 100 µg

$$$$
>  <given_smiles>
CC(C)C(=Nc1ccc(Cl)nc1)SCc1cccc(Oc2ccc(F)cc2)c1

>  <study_system>
Musca domestica

>  <LC50 HF>
> 100 µg

$$$$
>  <given_smiles>
Cc1ccc(N=C(OCc2cccc(Oc3ccccc3)c2)C(C)C)cn1

>  <study_system>
Musca domestica

>  <LC50 HF>
25 µg

$$$$
>  <given_smiles>
C=C(C)C(=Nc1ccc(Cl)nc1)OCc1ccc(F)c(Oc2ccccc2)c1

>  <study_system>
Musca domestica

>  <LC50 HF>
< 100 µg

$$$$

# input for lookup
GET /values?item= COC(=O)c1ccc(N=C(OCc2cccc(Oc3ccccc3)c2)C(C)C)o1 &system= Musca domestica returns LC50 HF: > 100 µg

====

Catalogue of LC50 HF values
tested on: Musca domestica; experiment: Housefly contact test, mortality after 48 hours; assay type: in vivo, Housefly Musca domestica; conditions: μg of the test compound per 25 female flies

Below: 2 molecules and their reported LC50 HF.
>  <given_smiles>
CC(C)C(=Nc1cc(C(F)(F)F)ccn1)OCc1cccc(Oc2ccc(F)cc2)c1

>  <metric>
LC50 HF

>  <result>
> 100 µg

$$$$
>  <given_smiles>
CC(C)C(=Nc1ccc(Cl)nc1)NCc1cccc(Oc2ccccc2)c1

>  <metric>
LC50 HF

>  <result>
> 100 µg

$$$$

# input for lookup
The molecule identified as CCCCc1nc2ccc(N=C(OCc3cccc(Oc4ccccc4)c3)C(C)C)cc2o1 registered its LC50 HF at > 100 µg

====

Catalogue of LC50 HF values
test system: Musca domestica; assay: Housefly contact test, mortality after 48 hours; assay type: in vivo, Housefly Musca domestica; details: μg of the test compound per 25 female flies
Give just the number in µg; leave the unit off.

>  <given_smiles>
CC(C)C(=Nc1ccc(Cl)nc1)OCc1cccc(Oc2ccc(Cl)cc2)c1

>  <quantitative_readout>
15

$$$$
>  <given_smiles>
CC(C)C(=Nc1ccc(F)nc1)OCc1cccc(Oc2ccccc2)c1

>  <quantitative_readout>
8

$$$$

# input for lookup
The compound identified as CC(C)C(=Nc1cncc(C(F)(F)F)c1)OCc1cccc(Oc2ccccc2)c1 registered its LC50 HF at 5

====

system: Aphis fabae; assay: Black bean aphid spray test on nasturtium plants, mortality after 48 hours; type: in vivo, Black Bean Aphid Aphis fabae (Scop.); details: mixed ages, percent of test compound in sprayed solution
Catalogue of LC50 BA values
Give just the number in %; leave the unit off.

Below: 4 compounds and their reported LC50 BA.
>  <compound>
CC(C)C(=Nc1ccc(OCC(F)(F)F)nc1)OCc1cccc(Oc2ccccc2)c1 [Compound 40]

>  <metric>
LC50 BA

>  <quantitative_readout>
0.0003

$$$$
>  <compound>
Cc1ccc(N=C(OCc2cccc(Oc3ccccc3)c2)C(C)C)cn1 [Compound 10]

>  <metric>
LC50 BA

>  <quantitative_readout>
0.05

$$$$
>  <compound>
CC(C)C(=Nc1ccc(Cl)nc1)OCc1cccc(Oc2ccccc2)c1 [Compound 1]

>  <metric>
LC50 BA

>  <quantitative_readout>
0.001

$$$$
>  <compound>
CC(C)C(=Nc1ccc(OCC(F)(F)F)nc1)OCc1cccc(Oc2ccc(F)cc2)c1 [Compound 43]

>  <metric>
LC50 BA

>  <quantitative_readout>
0.0003

$$$$

The compound identified as COc1ccc(N=C(OCc2cccc(Oc3ccccc3)c2)C(C)C)cn1 [Compound 3] registered its LC50 BA at 0.003

====

tested on: Aphis fabae; experiment: Black bean aphid spray test on nasturtium plants, mortality after 48 hours; format: in vivo, Black Bean Aphid Aphis fabae (Scop.); details: mixed ages, percent of test compound in sprayed solution
Mark each entry y if its LC50 BA sits below 0.003%, and n for all others.

## Task Take the compound CCOc1ccc(N=C(OCc2cccc(Oc3ccccc3)c2)C(C)C)cn1 and say whether its LC50 BA is less than 0.003%.
## Result n

## Task Take the compound CC(C)C(=Nc1ccc(OCC(F)(F)F)nc1)OCc1ccc(F)c(Oc2ccc(Cl)cc2)c1 and say whether its LC50 BA is less than 0.003%.
## Result y

## Task Take the compound CC(C)C(=Nc1ccc(OCC(F)(F)F)nc1)OCc1ccc(F)c(Oc2ccccc2)c1 and say whether its LC50 BA is less than 0.003%.
## Result y

## Task Take the compound CC(C)C(=Nc1ccc2nc(C(C)C)oc2c1)OCc1cccc(Oc2ccccc2)c1 and say whether its LC50 BA is less than 0.003%.
## Result n

## Task Take the compound CC(C)C(=Nc1cncc(C(F)(F)F)c1)OCc1ccc(F)c(Oc2ccc(Cl)cc2)c1 and say whether its LC50 BA is less than 0.003%.
## Result n

## Task Take the compound COC(=O)c1ccc(N=C(OCc2cccc(Oc3ccccc3)c2)C(C)C)o1 and say whether its LC50 BA is less than 0.003%.
## Result n

====

system: Musca domestica; experiment: Housefly contact test, mortality after 48 hours; format: in vivo, Housefly Musca domestica; conditions: μg of the test compound per 25 female flies
metric: LC50 HF (µg)
Give just the number in µg; leave the unit off.

>  <given_smiles>
CC(C)C(=Nc1ccc(Cl)nc1Cl)OCc1cccc(Oc2ccccc2)c1

>  <unit_symbol>
µg

>  <LC50 HF>
18

$$$$

The compound identified as COc1ccc(N=C(OCc2cccc(Oc3ccccc3)c2)C(C)C)cn1 registered its LC50 HF at 7

====

system: Tetranychus urticae; experiment: Two-spotted mite acaricidal test on pinto bean plants; type: in vivo, two-spotted mite Tetranychus urticae (Koch); details: adults, percent concentration in solution, 5-7 days
Catalogue of LC50 2-SM A values

Below: 10 molecules and their reported LC50 2-SM A.
>  <molecule>
Cc1ccc(N=C(OCc2cccc(Oc3ccccc3)c2)C(C)C)cn1 [Compound 10]

>  <study_system>
Tetranychus urticae

>  <LC50 2-SM A>
> 0.05%

$$$$
>  <molecule>
CC(C)C(=Nc1ccc(Cl)nc1)SCc1cccc(Oc2ccc(F)cc2)c1 [Compound 29]

>  <study_system>
Tetranychus urticae

>  <LC50 2-SM A>
> 0.05%

$$$$
>  <molecule>
CC(C)C(=Nc1ccc(Cl)nc1)OCc1cccc(Oc2ccc(Cl)cc2)c1 [Compound 30]

>  <study_system>
Tetranychus urticae

>  <LC50 2-SM A>
> 0.05%

$$$$
>  <molecule>
CC(C)C(=Nc1ccc(OCC(F)(F)F)nc1)OCc1cccc(Oc2ccccc2)n1 [Compound 45]

>  <study_system>
Tetranychus urticae

>  <LC50 2-SM A>
0.03%

$$$$
>  <molecule>
CC(C)C(=Nc1ccc(OCC(F)(F)F)nc1)OCc1cccc(Oc2ccc(Cl)cc2)c1 [Compound 39]

>  <study_system>
Tetranychus urticae

>  <LC50 2-SM A>
0.006%

$$$$
>  <molecule>
CCOc1ccc(N=C(OCc2cccc(Oc3ccccc3)c2)C(C)C)cn1 [Compound 41]

>  <study_system>
Tetranychus urticae

>  <LC50 2-SM A>
> 0.05%

$$$$
>  <molecule>
CC(C)(Cl)C(=Nc1nnc(C(F)(F)F)s1)OCc1cccc(Oc2ccccc2)c1 [Compound 9]

>  <study_system>
Tetranychus urticae

>  <LC50 2-SM A>
> 0.05%

$$$$
>  <molecule>
C=C(C)C(=Nc1ccc(Cl)nc1)OCc1cccc(Oc2ccccc2)c1 [Compound 47]

>  <study_system>
Tetranychus urticae

>  <LC50 2-SM A>
> 0.05%

$$$$
>  <molecule>
COc1ccc(N=C(OCc2cccc(Oc3ccccc3)c2)C(C)C)cn1 [Compound 3]

>  <study_system>
Tetranychus urticae

>  <LC50 2-SM A>
> 0.05%

$$$$
>  <molecule>
CC(C)C(=Nc1cnc2ccccc2c1)OCc1cccc(Oc2ccccc2)c1 [Compound 17]

>  <study_system>
Tetranychus urticae

>  <LC50 2-SM A>
> 0.05%

$$$$

The molecule identified as Cc1cc(N=C(OCc2cccc(Oc3ccccc3)c2)C(C)C)no1 [Compound 8] registered its LC50 2-SM A at > 0.05%

The molecule identified as CC(C)C(=Nc1ccc(OCC(F)(F)F)nc1)OCc1ccc(F)c(Oc2ccc(Cl)cc2)c1 [Compound 44] registered its LC50 2-SM A at 0.001%

The molecule identified as CC(C)C(=Nc1ccc(Cl)nc1)OCc1cccc(Oc2ccccc2)c1 [Compound 1] registered its LC50 2-SM A at > 0.05%

The molecule identified as Clc1ccc(N=C(OCc2cccc(Oc3ccccc3)c2)C2CC2)cn1 [Compound 7] registered its LC50 2-SM A at > 0.05%

====

Catalogue of LC50 2-SM A values
test system: Tetranychus urticae; assay: Two-spotted mite acaricidal test on pinto bean plants; type: in vivo, two-spotted mite Tetranychus urticae (Koch); conditions: adults, percent concentration in solution, 5-7 days

>  <compound>
CC(C)C(=Nc1ccc2nc(-c3ccccc3)oc2c1)OCc1cccc(Oc2ccccc2)c1 [Compound 28]

>  <study_system>
Tetranychus urticae

>  <metric>
LC50 2-SM A

>  <result>
> 0.05%

$$$$
>  <compound>
CC(C)C(=Nc1ccc(OCC(F)(F)F)nc1)OCc1cccc(Oc2ccccc2)c1 [Compound 40]

>  <study_system>
Tetranychus urticae

>  <metric>
LC50 2-SM A

>  <result>
0.006%

$$$$
>  <compound>
CC(C)C(=Nc1ccc2nc(C(C)C)sc2c1)OCc1cccc(Oc2ccccc2)c1 [Compound 21]

>  <study_system>
Tetranychus urticae

>  <metric>
LC50 2-SM A

>  <result>
> 0.05%

$$$$
>  <compound>
CC(C)C(=Nc1ccc(Cl)nc1)OCc1ccc(F)c(Oc2ccc(Cl)cc2)c1 [Compound 32]

>  <study_system>
Tetranychus urticae

>  <metric>
LC50 2-SM A

>  <result>
> 0.05%

$$$$
>  <compound>
CC(C)C(=Nc1ccc2ocnc2c1)OCc1cccc(Oc2ccccc2)c1 [Compound 19]

>  <study_system>
Tetranychus urticae

>  <metric>
LC50 2-SM A

>  <result>
> 0.05%

$$$$

The compound identified as CSc1ccc(N=C(OCc2cccc(Oc3ccccc3)c2)C(C)C)cn1 [Compound 38] registered its LC50 2-SM A at > 0.05%

The compound identified as CC(C)C(=Nc1c(F)c(F)nc(F)c1F)OCc1cccc(Oc2ccccc2)c1 [Compound 6] registered its LC50 2-SM A at > 0.05%

The compound identified as CC(C)C(=Nc1ccc(C(F)(F)F)cn1)OCc1cccc(Oc2ccccc2)c1 [Compound 4] registered its LC50 2-SM A at > 0.05%

The compound identified as CC(C)C(=Nc1cc(C(F)(F)F)ccn1)OCc1cccc(Oc2ccccc2)c1 [Compound 34] registered its LC50 2-SM A at > 0.05%

The compound identified as CC(C)C(=Nc1cncc(C(F)(F)F)c1)OCc1cccc(Oc2ccc(F)cc2)c1 [Compound 35] registered its LC50 2-SM A at > 0.05%

The compound identified as C=C(C)C(=Nc1ccc(Cl)nc1)OCc1ccc(F)c(Oc2ccc(Cl)cc2)c1 [Compound 48] registered its LC50 2-SM A at > 0.05%

The compound identified as CC(C)C(=Nc1ccc(F)nc1)OCc1cccc(Oc2ccccc2)c1 [Compound 5] registered its LC50 2-SM A at > 0.05%
